assay: Antiproliferative activity against human DU145 cells assessed as inhibition of cell proliferation incubated for 18 hrs followed by MTT addition for 4 hrs by MTT assay; assay type: functional, cell-based; details: DU-145
Met if IC50 is below 50 µM. Not met if not; exact matches included in Not met.

{"smiles.entry": "CCCCCCCCCCCCCCCCOP(=O)([O-])OCC[N+](C)(C)C", "qualitative.label": "Met"}
{"smiles.entry": "CCCCCCOP(=O)(O)OCCSC(=S)N1CCN(C)CC1", "qualitative.label": "Not met"}
{"smiles.entry": "CCCCCCCCCCOP(=O)(O)OCCSC(=S)N1CCCCC1", "qualitative.label": "Met"}
{"smiles.entry": "CCCOP(=O)(O)OCCSC(=S)N1CCCC1", "qualitative.label": "Not met"}
{"smiles.entry": "CCCCCCCCCCOP(=O)(O)OCCSC(=S)N1CCCCCC1", "qualitative.label": "Met"}
{"smiles.entry": "CCCCCCCCCCCCCCCCOP(=O)(O)OCCSC(=S)N1CCCCC1", "qualitative.label": "Met"}

Item "CCCCCCCCCCOP(=O)(O)OCCSC(=S)N1CCCC1" : IC50 beneath 50 µM, strictly?
Met

Item "CCCCCCCCCCCCCCCCOP(=O)(O)OCCSC(=S)N1CCCC1" : IC50 beneath 50 µM, strictly?
Met

Item "CCCCCCCCCCOP(=O)(O)OCCSC(=S)N1CCN(C)CC1" : IC50 beneath 50 µM, strictly?
Not met

Item "CCCOP(=O)(O)OCCSC(=S)N1CCCCCC1" : IC50 beneath 50 µM, strictly?
Not met

Numbers sourced from ChEMBL document CHEMBL3352720.
